Test system: phosphorylation of Serine 473 in Akt
Experiment: In Vitro Phospho-Ser473 Akt Assay in MDA-MB-468 cells
Assay type: cell-based
Conditions: Homo sapiens, MDA-MB-468, read-out: IC50 values against mTOR, phospho-Ser473 Akt assay, MDA-MB-468 cells
pIC50: −log10 of the molar value.
For each entry below, report its pIC50 value.

For reference, reported pIC50 for "C[C@H]1COCCN1c1nc(N2CCOC[C@@H]2C)c2ccc(-c3cccc(S(N)(=O)=O)c3)nc2n1" stands at > 6.52

Record "CC(C)NCc1cccc(-c2ccc3c(N4CCOC[C@@H]4C)nc(N4CCOC[C@@H]4C)nc3n2)c1" . Reported pIC50: > 7.00

Recorded result, "C[C@H]1COCCN1c1nc(N2CCOC[C@@H]2C)c2ccc(-c3cccc(CNC(=O)C4CCC4)c3)nc2n1" , pIC50: > 6.52

get_value(item= "C[C@H]1COCCN1c1nc(N2CCOC[C@@H]2C)c2ccc(-c3ccc(Cl)cc3)nc2n1" , readout=pIC50) returns > 6.52

In plain terms, "CC(=O)NCc1cccc(-c2ccc3c(N4CCOC[C@@H]4C)nc(N4CCOC[C@@H]4C)nc3n2)c1" has a documented pIC50 of > 7.00

Documented pIC50 of "C[C@H]1COCCN1c1nc(N2CCOC[C@@H]2C)c2ccc(-c3ccc(F)cc3)nc2n1" : > 7.00

Looking up "C[C@H]1COCCN1c1nc(N2CCOC[C@@H]2C)c2ccc(-c3ccc(F)c(CNC4CCOCC4)c3)nc2n1" , I see its pIC50 listed as > 7.00

The reported value for "C[C@H]1COCCN1c1nc(N2CCOC[C@@H]2C)c2ccc(-c3ccc(F)c(CNC(=O)C4CC4)c3)nc2n1" in terms of pIC50 is > 6.52

Per the records, this compound ( "C[C@H]1COCCN1c1nc(N2CCOC[C@@H]2C)c2ccc(-c3ccoc3)nc2n1" ) has pIC50 equal to > 7.00

Kindly note the recorded pIC50 for COc1ccc(-c2ccc3c(N4CCOC[C@@H]4C)nc(-c4cccc(C(N)=O)c4)nc3n2)cc1CO [Example 19k] , which is > 6.52

The compound listed as "CNCc1ccc(-c2ccc3c(N4CCOC[C@@H]4C)nc(N4CCOC[C@@H]4C)nc3n2)o1" shows pIC50 equal to > 7.00

Record "C[C@@H]1CN(c2nc(N3CCOC[C@@H]3C)c3ccc(-c4ccc(CO)cc4)nc3n2)C[C@H](C)O1" , field pIC50: > 6.52

The compound listed as "C[C@H]1COCCN1c1nc(N2CCOC[C@@H]2C)c2ccc(-c3ccc4[nH]ccc4c3)nc2n1" has a reported pIC50 of > 7.00

Sure, the documented pIC50 for "COc1ccc(-c2ccc3c(N4CCOC[C@@H]4C)nc(N4CCOC[C@@H]4C)nc3n2)cc1CNC1CCCCC1" is > 7.00

Entry "C[C@H]1COCCN1c1nc(N2CCOC[C@@H]2C)c2ccc(-c3ccc(CN)cc3)nc2n1" — recorded pIC50 = > 7.00

Query "C[C@H]1COCCN1c1nc(N2CCOC[C@@H]2C)c2ccc(-c3ccc(F)c(C(N)=O)c3)nc2n1" yields pIC50 of > 6.52

response.value for COc1ccc(-c2nc(N3CCOC[C@@H]3C)c3ccc(-c4cccc(CO)c4)nc3n2)cn1 [Example 19p] (field: pIC50) = > 7.00

Noted for "CC(C)NCc1ccc(-c2ccc3c(N4CCOC[C@@H]4C)nc(N4CCOC[C@@H]4C)nc3n2)o1" : its pIC50 reads > 7.00

Briefly, pIC50 measured for "C[C@H]1COCCN1c1nc(N2CCOC[C@@H]2C)c2ccc(-c3cccc(CNC4CCOCC4)c3)nc2n1" : > 7.00

Reported pIC50 of "C[C@@H]1CN(c2nc(N3CCOC[C@@H]3C)c3ccc(-c4ccc(O)cc4)nc3n2)C[C@H](C)O1" : > 7.00

The compound listed as "C[C@H]1COCCN1c1nc(N2CCOC[C@@H]2C)c2ccc(-c3ccc(C(N)=O)cc3)nc2n1" shows pIC50 equal to > 6.52

Field pIC50 (entry "Cc1cccc(-c2ccc3c(N4CCOC[C@@H]4C)nc(N4CCOC[C@@H]4C)nc3n2)c1" ) reads > 7.00

Recorded pIC50 (compound "CC(C)NC(=O)c1cccc(-c2ccc3c(N4CCOC[C@@H]4C)nc(N4CCOC[C@@H]4C)nc3n2)c1" ): > 7.00

Reported pIC50 for CCOC(=O)C1CCCN(c2nc(N3CCOC[C@@H]3C)c3ccc(-c4ccc(OC)c(CO)c4)nc3n2)C1 (stereo partly drawn) [Example 18r] was > 7.00

response.value for "C[C@H]1COCCN1c1nc(N2CCOC[C@@H]2C)c2ccc(-c3ccc(CNC4CCOCC4)cc3)nc2n1" (field: pIC50) = > 7.00

The compound listed as "CCN(CC)CCCNCc1cc(-c2ccc3c(N4CCOC[C@@H]4C)nc(N4CCOC[C@@H]4C)nc3n2)ccc1OC" shows pIC50 equal to > 6.52

Lab note: measured pIC50 of COc1ccc(-c2ccc3c(N4CCOC[C@@H]4C)nc(N4CCC(C#N)(c5ccccc5)CC4)nc3n2)cc1CO [Example 18an] was > 7.00

The recorded pIC50 for "C[C@H]1COCCN1c1nc(N2CCOC[C@@H]2C)c2ccc(-c3cccc(O)c3)nc2n1" is > 7.00

Lab note: measured pIC50 of "C[C@H]1COCCN1c1nc(N2CCOC[C@@H]2C)c2ccc(-c3cccc(CN4CC[C@@H](O)C4)c3)nc2n1" was > 7.00

The compound "C[C@H]1COCCN1c1nc(N2CCOC[C@@H]2C)c2ccc(-c3cc(F)nc(F)c3)nc2n1" showed pIC50 equal to > 6.52
